System: HOP-62 NSCLC
Assay: NCI-60 one-dose screen, 48 h
Settings: 10 µM unless noted
Experimental: Growth inhibition of the HOP-62 human Non-Small Cell Lung tumor cell line is measured as a screen for anti-cancer activity. Cells are grown in 96 well plates and exposed to the test compound for 48 hours. Compounds are tested at a single concentration, which is 10^-5 M for most compounds. The reported endpoint is percent growth (GI% or GIPRCNT), where numbers from 0 - 100% represent growth inhibition, and numbers from -100% - 0 represent cell death. […]
Compounds without any hit were thinned out: in the full panel of roughly 83,000, 20% have a hit. Active and inactive are the calls of the source. The calls were made as follows: active = growth percent below 10; inactive = the rest.
Outcomes: True for active, False for inactive

1) C[C@H]1[C@H](C)CC[C@]2(COC(=O)CCC(=O)O)CC[C@]3(C)C(=CC[C@@H]4[C@@]5(C)CCCNC(C)(C)[C@@H]5CC[C@]43C)[C@H]12 | False
2) CC[C@]12C=CCN3CC[C@@]4(c5ccc(OC)cc5N(C)[C@H]4[C@@](O)(C(=O)OC)[C@@H]1OC(=O)CCC(=O)N[C@H](Cc1c[nH]c4ccccc14)C(=O)OC)[C@@H]32 | True
3) C[C@@H]1C[C@H]2C(=O)O[C@@H](C)[C@H](NC(=O)[C@H](Cc3cc(F)cc(F)c3)NC(=O)Nc3ccc(Cl)cc3F)C(=O)N3C[C@H](O)C[C@H]3C(=O)N3CCN(C)C[C@H]3C(=O)N[C@@H](C)C(=O)N2C1 | False
4) CCOC(=O)COc1ccc2c(c1)O/C(=C\c1ccc(O)cc1)C2=O | False
5) C[C@]12CCc3c(ccc4cc(O)ccc34)[C@@H]1CC[C@H]2O | False
6) CC[C@@](C)(NC(=O)[C@H](C)NC(=O)CCNC(=O)C(C)(C)NC(=O)[C@H](C)NC(=O)[C@@H]1CCCN1C(=O)[C@@](C)(CC)NC(=O)[C@H](Cc1ccccc1)NC(=O)C1CCCN1C(=O)C(C)(C)NC(=O)C1CCCN1C(=O)C(C)(C)NC(C)=O)C(=O)NCCC(=O)N[C@@H](CC(C)C)C(=O)NC(C)(C)C(=O)NCCC(=O)N[C@@H](CC(C)C)C(=O)NC(C)(C)C(=O)NC(C)(C)C(=O)N[C@@H](CC(C)C)C(=O)NCCC(=O)NCO (some centres undefined) | True
7) CC(=O)O.CC(=O)O.O.[Fe] | False
8) O=C1CC(c2ccccc2)Cc2nc3ccc(Cl)cc3cc21 (centres undefined) | False
9) C#C[C@]1(O)CC[C@H]2[C@@H]3CC=C4c5nc(N)sc5CC[C@]4(C)[C@H]3CC[C@@]21C | False
10) COc1ccc2c(c1)C(C)Cc1c(Cl)nc(C)nc1N2C (centres undefined) | False
11) C=CCCCCCCCCC(=O)OC(C)C | False
12) COc1ccc(C(=O)CCC(=O)O)cc1 | False
13) CCCCC(CCCCCC(CCCC)C1NC(C)Cc2cc(OC)c(OC)cc21)C1NC(C)Cc2cc(OC)c(OC)cc21 (centres undefined) | True
14) CC(C)=CCC[C@](C)(O)[C@H]1CC[C@]2(C)[C@@H]1CC[C@@H]1[C@@]3(C)CC/C(=N/O)C(C)(C)[C@@H]3CC[C@]12C | True
15) COc1ncc(-c2ccc3nc(N)n(-c4ccccc4C(F)(F)F)c(=O)c3c2)cc1S(=O)(=O)Nc1ccc(F)cc1F | False
16) COC(=O)C(=Cc1ccccc1[N+](=O)[O-])C(=O)OC | False
17) Nc1nnc(CSc2nnc3n(Cc4ccccc4)c(=O)c4c5c(sc4n23)CCCC5)s1 | False
18) COC(=O)c1cc2c(=O)[nH]cc3c2c(n1)CCC3 | False
19) COc1cc2c(cc1OCCCCCOc1ccc(-n3c(C)nc4ccccc4c3=O)cc1)N=C[C@@H]1CCCN1C2=O | True
20) C=CC1=C(C)C2=NC1=CC1=NC(=CC3=C(C)C4=C(O)C(C(=O)O)C(=C5NC(=C2)C(C)C5CCC(=O)O)C4=N3)C(CC)=C1C (centres undefined) | False
21) N#C/C(C(=O)c1ccccc1)=C1/C(=O)Nc2ccccc21 | False
22) COc1ccc(C2CC(c3ccc4ccccc4c3)=NN2c2nc(O)c(C3=c4cc(OC)ccc4=NC3=O)s2)cc1 (centres undefined) | True
23) O=C(Oc1ccc(Cl)cc1[N+](=O)[O-])Oc1ccc(Cl)cc1[N+](=O)[O-] | False
24) Cc1cc(N2CCCCCC2)nc(N2CCN(CC(=O)Nc3ccc4c(ccn4Cc4ccccc4)c3)CC2)n1 | False
25) O=C(Nc1cccc(F)c1)c1cc(=O)[nH]c2cc(Br)ccc12 | False
26) [2H]C1([2H])CCN(C(=O)C2CC2)c2cc(NS(=O)(=O)c3ccc(-c4cccc(C(N)=O)c4)cc3)ccc21 | False
27) CCOc1ccc(/C=C(\C#N)c2cc3ccccc3[nH]2)cc1 | False
28) CCCCN(CC)CC(CC)Nc1cc(OC)cc2cccnc12 (centres undefined) | False
29) CCCC(NC(=O)OCc1ccccc1)C(=O)O (centres undefined) | False
30) CC(C)=CC/C=C(/C)[C@H]1CC[C@]2(C)[C@@H]1CC[C@@H]1[C@@]3(C)CCC(=O)NC(C)(C)[C@@H]3CC[C@]12C | False
31) O=C(Nc1ccc(CN2CCOCC2)c(C(F)(F)F)c1)c1nc2ccc3[nH]ncc3c2c2c1CCCC2 | False
32) O=C(O)c1ccccc1C(F)(F)F | False
33) COc1ccc2c(c1)c(-c1noc(-c3cn(C)c4ncc(F)cc34)n1)cn2C | False
34) O=C(Nc1cc(-c2cccnc2)nc(NCCCN2CCOCC2)n1)c1cc(Br)cc(C(F)(F)F)c1 | False
